The following sequences are shown together with reported protein stability index values.
Test system: Saccharomyces cerevisiae
measurement description: protein stability index of tFT-peptide fusion (C-terminal peptide) (PSI (0-1 scale)); higher = more stable (slower turnover)
condition parameters: genetic background: wild type; temperature: 30 C
Enter the number alone.

Look up and state reported protein stability index for GVCCLWVGFQGG
0.704

###

The following sequences are shown together with reported protein stability index values.
System: Saccharomyces cerevisiae
measurement description: protein stability index of tFT-peptide fusion (C-terminal peptide) (PSI (0-1 scale)); higher = more stable (slower turnover)
condition parameters: genetic background: das1 deletion; temperature: 30 C
Enter the number alone.

A selection of reference data follows.
> print(dat)
   primary.sequence                 tested.on        recorded.endpoint  quantitative.readout
1      YVCLVWHRNFFS  Saccharomyces cerevisiae  protein stability index                 0.605
2      AFVVPLFLCCCG  Saccharomyces cerevisiae  protein stability index                 0.212
3      SMPWFWFVRGIG  Saccharomyces cerevisiae  protein stability index                   0.5

Look up and state reported protein stability index for PLPCFVLRLPVF
0.298

Look up and state reported protein stability index for VFLCVRLGFIFL
0.359

Look up and state reported protein stability index for VVRYGGVIAFRG
0.547

Look up and state reported protein stability index for VSGITLPFLMFH
0.348

Look up and state reported protein stability index for GFLWFCGVPVGW
0.609

Look up and state reported protein stability index for SYFASLLDLFTA
0.66

Look up and state reported protein stability index for LCYVLLWLLCRS
0.349

Look up and state reported protein stability index for HHACLLPVRKAG
0.653

###

System: Saccharomyces cerevisiae
measurement description: protein stability index of tFT-peptide fusion (C-terminal peptide) (PSI (0-1 scale)); higher = more stable (slower turnover)
condition parameters: genetic background: wild type; temperature: 30 C
We use 0.7 as the dividing line for protein stability index: on or above the line is 1, below is -1.

For orientation, consider the following solved cases.
> print(dat)
   primary.sequence  classification
1      SWSLRLSTIFSV              -1
2      PLLPPLPPRPPP              -1
3      GAVRGDRLTHTG               1

Could you tell me if the measured protein stability index of STSPFPAPRRAL reaches 0.7 or more?
1

Could you tell me if the measured protein stability index of APPLQLSSPPPS reaches 0.7 or more?
1

Could you tell me if the measured protein stability index of GWGGVWGRVWWR reaches 0.7 or more?
-1

Could you tell me if the measured protein stability index of KGLKQLMQIRME reaches 0.7 or more?
-1

Could you tell me if the measured protein stability index of CCGSSPLPPFTS reaches 0.7 or more?
1

###

Test system: Saccharomyces cerevisiae
measurement description: protein stability index of tFT-peptide fusion (C-terminal peptide) (PSI (0-1 scale)); higher = more stable (slower turnover)
condition parameters: genetic background: das1 deletion; temperature: 30 C
The following sequences are shown together with reported protein stability index values.
Enter the number alone.

A selection of reference data follows.
> print(dat)
                           primary.sequence                 tested.on        recorded.endpoint  quantitative.readout
1      FSNAGVEMQIRK [GNA1 C-terminal 12 aa]  Saccharomyces cerevisiae  protein stability index                 0.702
2      ETGHISKDCPKA [GIS2 C-terminal 12 aa]  Saccharomyces cerevisiae  protein stability index                 0.698
3      VKDRPRGKDARL [RML2 C-terminal 12 aa]  Saccharomyces cerevisiae  protein stability index                 0.727
4      RSTFLMHGRLAT [MAK3 C-terminal 12 aa]  Saccharomyces cerevisiae  protein stability index                 0.707
5  MTQWLEISILMN [YCL001W-A C-terminal 12 aa]  Saccharomyces cerevisiae  protein stability index                 0.544

Note: attention shifts to another entry.
Look up and state reported protein stability index for FRHNRSNKKSGC [GEX2 C-terminal 12 aa]
0.707

###

Test system: Saccharomyces cerevisiae
measurement description: protein stability index of tFT-peptide fusion (C-terminal peptide) (PSI (0-1 scale)); higher = more stable (slower turnover)
condition parameters: genetic background: wild type; temperature: 30 C
recorded endpoint: protein stability index
Enter the number alone.

A selection of reference data follows.
> print(dat)
   primary.sequence  quantitative.readout
1      ARESGFGGVLEE                 0.674
2      GRGGSIGEEWGG                 0.693
3      HPTSHRPLPAAF                 0.724

Look up and state reported protein stability index for WFIFTITSVAGL
0.0312

Look up and state reported protein stability index for PALAPLRPLPPV
0.669

Look up and state reported protein stability index for SSLTFTFAILLY
0.339

Look up and state reported protein stability index for RAWPLLPTCPPP
0.7

Look up and state reported protein stability index for KVCVLSPDSCGL
0.741

Look up and state reported protein stability index for AAVRCVAEGGAP
0.637

Look up and state reported protein stability index for ERRKQDERKRRV
0.706

Look up and state reported protein stability index for FVKQSHYCLFHL
0.634

Look up and state reported protein stability index for CGSTRGDCVGIW
0.705

Look up and state reported protein stability index for PPPVPPPWPSPF
0.661

Look up and state reported protein stability index for LIPCFSPLPSPF
0.721

Look up and state reported protein stability index for RGYGRGWRGVGA
0.747

###

Test system: Saccharomyces cerevisiae
measurement description: protein stability index of tFT-peptide fusion (C-terminal peptide) (PSI (0-1 scale)); higher = more stable (slower turnover)
condition parameters: genetic background: wild type; temperature: 30 C
recorded endpoint: protein stability index

A selection of reference data follows.
> print(dat)
   primary.sequence  result
1      VESRVVGGCGDW   0.625
2      VFVMRDGFLRKV   0.374
3      EYAVLLFPHHPG   0.623
4      YPPPPLPPPRPP   0.555
5      VGGVWVDVMGFC   0.793

Look up and state reported protein stability index for RLNNRVMGHIEA
0.667

Look up and state reported protein stability index for KKTKKKKNKKQE
0.716

Look up and state reported protein stability index for GAPVGRRPGRDR
0.703

Look up and state reported protein stability index for VDCEECSFQFQM
0.586

Look up and state reported protein stability index for QPVGAAQWGSQS
0.715

Look up and state reported protein stability index for VSFLVSIFVSGV
0.303

Look up and state reported protein stability index for RSRCYSNIRIFI
0.589

Look up and state reported protein stability index for VGLGVLWVMGKV
0.667

Look up and state reported protein stability index for PSSPPDLAFRPP
0.616

Look up and state reported protein stability index for VLLGYPRILSLF
0.35

###

The following sequences are shown together with reported protein stability index values.
System: Saccharomyces cerevisiae
measurement description: protein stability index of tFT-peptide fusion (C-terminal peptide) (PSI (0-1 scale)); higher = more stable (slower turnover)
condition parameters: genetic background: wild type; temperature: 30 C
Enter the number alone.

A selection of reference data follows.
> print(dat)
   primary.sequence        recorded.endpoint  quantitative.readout
1      GGFSLTGSLCID  protein stability index                 0.687
2      VSGSVVLHTVIP  protein stability index                 0.658
3      LLFTFFFLLLFS  protein stability index                 0.527
4      AEPSERSRNSPP  protein stability index                  0.68
5      VPSPFIPVSPTL  protein stability index                 0.669
6      ASIRLSPSWVQR  protein stability index                 0.652

Look up and state reported protein stability index for FCGLVIRFSEKV
0.653

Look up and state reported protein stability index for PHRACSSRPLGP
0.718

Look up and state reported protein stability index for PLPQNIPFPLPL
0.735

###

Tested on: Saccharomyces cerevisiae
measurement description: protein stability index of tFT-peptide fusion (C-terminal peptide) (PSI (0-1 scale)); higher = more stable (slower turnover)
condition parameters: genetic background: wild type; temperature: 30 C
We use 0.7 as the dividing line for protein stability index: on or above the line is 1 (yes), below is 0 (no).

For orientation, consider the following solved cases.
> print(dat)
   primary.sequence  classification
1      KKKKKKKKRNRK          0 (no)
2      RDPIGRPEMSKI          0 (no)
3      GHRMMWLFGVPA          0 (no)
4      SFPPPFLISLSP          0 (no)
5      GWCTLASGLFTT          0 (no)

Could you tell me if the measured protein stability index of RQLVNKKIKEKK reaches 0.7 or more?
1 (yes)

Could you tell me if the measured protein stability index of WGGGGLRGGWDG reaches 0.7 or more?
1 (yes)

Could you tell me if the measured protein stability index of EYRPPVPPPFPP reaches 0.7 or more?
0 (no)
